# Measurement notes: pharmacokinetics in SD rats
# Type: in vivo
# Conditions used: rat, plasma; male SD rats, 10 mg/kg po
Observed property: Cmax (ng/mL)
Express it in ng/mL; write the number only.

input: Fill blank: measured Cmax of the compound N#Cc1c(-c2cnc(N)nc2C(F)(F)F)nc(N2CCOCC2)nc1N1CCOCC1 [Compound 17p] is ____.
output: 538

----------
# Measurement notes: pharmacokinetics in SD rats
# Format: in vivo
# Conditions used: rat, plasma; female SD rats, 10 mg/kg po
Observed property: AUC(0-t) (µg·h/mL)
Express it in µg·h/mL; write the number only.

input: Fill blank: measured AUC(0-t) of the molecule N#Cc1c(-c2cnc(N)nc2C(F)(F)F)nc(N2CCOCC2)nc1N1CCOCC1 [Compound 17p] is ____.
output: 50.6
